Substrate: Cc1cc(=O)oc2cc(O[C@@H]3OC[C@@H](O)[C@H](O)[C@H]3O)ccc12
protocol.notes: galactosyltransferase assay, HPLC-UV
Assay type: biochemical, Homo sapiens
run.conditions: apparent, fixed 1 mM UDP-Gal, 10 mM MnCl2, 100 mM sodium cacodylate pH 7.0, 37 °C
observation.type: kcat/Km (M⁻¹ s⁻¹)
Give the value, in units of M⁻¹ s⁻¹, as a plain number.

Exercise: So what does the record say about kcat/Km for hβ4GalT7 (GST-β4GalT7) (Homo sapiens; R270A) (protein, truncated soluble form lacking the first 60 N-terminal amino acids (transmembrane domain and part of stem), GST fusion (tag kept), pET-41a(+), E. coli BL21(DE3), glutathione-Sepharose purified) VRGQGQETSGPPRACPPEPPPEHWEEDASWGPHRLAVLVPFRERFEELLVFVPHMRRFLSRKKIRHHIYVLNQVDHFRFNRAALINVGFLESSNSTDYIAMHDVDLLPLNEELDYGFPEAGPFHVASPELHPLYHYKTYVGGILLLSKQHYRLCNGMSNRFWGWGREDDEFYRRIKGAGLQLFRPSGITTGYKTFRHLHDPAWRKRDQKAIAAQKQEQFKVDREGGLNTVKYHVASRTALSVGGAPCTVLNIMLDCDKTATPWCTFS ?
Solution: 1200
